Where these numbers come from: patent US20240270821A1

- Test system: hGIPR (Homo sapiens, UniProt P48546)
- Sequence (P48546 22-466): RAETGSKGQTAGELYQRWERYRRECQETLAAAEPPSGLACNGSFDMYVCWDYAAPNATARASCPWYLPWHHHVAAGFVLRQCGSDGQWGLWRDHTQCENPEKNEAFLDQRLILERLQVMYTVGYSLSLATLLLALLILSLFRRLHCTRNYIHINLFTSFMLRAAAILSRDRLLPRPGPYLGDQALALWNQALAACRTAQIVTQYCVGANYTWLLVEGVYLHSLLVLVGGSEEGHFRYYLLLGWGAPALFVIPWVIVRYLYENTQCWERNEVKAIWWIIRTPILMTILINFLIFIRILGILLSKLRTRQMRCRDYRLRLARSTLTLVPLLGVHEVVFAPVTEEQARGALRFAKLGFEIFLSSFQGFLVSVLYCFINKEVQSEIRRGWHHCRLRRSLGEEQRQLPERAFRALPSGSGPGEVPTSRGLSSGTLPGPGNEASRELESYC
- Run description: Functional cAMP activation in the presence of 0.1% casein (no HSA);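 note: intracellular cAMP rise after 30 min at 37 °C read by HTRF against a standard curve, scaled between buffer alone (0%) and top control ligand concentration (100%), four-parameter fit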
- Assay type: cell-based
- Setup conditions: read-out: Relative cAMP EC50, hGIPR
Starred links: 1 amine or outer side, 2 acyl side, 3 side chain; linkers in the order of their positions; H or OH if unused. Non-standard residues stand in square brackets, D forms with d. Groups on a side chain read outwards from the residue. *: point of attachment. C18 diacid = O=C(O)CCCCCCCCCCCCCCCCC(=O)*; αMePhe(2-F) = C[C@](N)(Cc1ccccc1F)C(=O)O; γGlu = O=C(O)[C@H](CCC(=O)[*:2])N[*:1]; αMe4Pal = C[C@](N)(Cc1ccncc1)C(=O)O; αMeY = C[C@](N)(Cc1ccc(O)cc1)C(=O)O; 4Pal = N[C@@H](Cc1ccncc1)C(=O)O; αMeL = CC(C)C[C@](C)(N)C(=O)O; αMeS = C[C@](N)(CO)C(=O)O; Orn = NCCC[C@H](N)C(=O)O; AEEA = NCCOCCOCC(=O)O; Aib = CC(C)(N)C(=O)O
Readout label: pEC50
Here pEC50 is given on a logarithmic scale as minus log10 of the concentration in mol/L.

See these solved cases before continuing.
Q. Form field: reported pEC50 of H-Y[Aib]QGT[αMePhe(2-F)]TSD[4Pal]SILLD[Orn]K([γGlu-γGlu-C18 diacid])AQ[Aib][Orn]FIE[αMeY]LEEGGPSSGAPPPSGTGE-NH2 [Example 674]
A. 10.58

Q. Form field: reported pEC50 of H-Y[Aib]QGT[αMePhe(2-F)]TSD[4Pal][αMeS]I[αMeL]LD[Orn]K([AEEA-γGlu-C18 diacid])AQ[αMe4Pal]EFI[dE][αMeY]LIEGGPSSGEPPPEGGGE-NH2 [Example 760]
A. 11.14

Q. Form field: reported pEC50 of H-Y[Aib]QGT[αMePhe(2-F)]TSD[4Pal]SILLDKK([γGlu-γGlu-C18 diacid])AQ[Aib]AFIEYLEEGGPSSGAPPPSGTE-NH2 [Example 509]
A. 10.25

Q. Form field: reported pEC50 of H-Y[Aib]QGT[αMePhe(2-F)]TSD[4Pal]SILLDKK([γGlu-γGlu-C18 diacid])AQ[Aib]AFIE[αMeY]LEEGGPSSGAPPPSGTE-NH2 [Example 551]
A. 10.76

Continue with the next substance.
Q. Form field: reported pEC50 of H-Y[Aib]QGT[αMePhe(2-F)]TSD[4Pal]SI[αMeL]LD[Orn]K([γGlu-γGlu-C18 diacid])AQ[αMe4Pal]EFI[dE][αMeY]LQEGGPSSGEPPPSGS-NH2 [Example 649]
A. 10.66
